Could you please report measured MIC for the items listed next?
System: Staphylococcus aureus
Test: Antibacterial activity against Staphylococcus aureus ATCC 25923 after 12 hrs by serial plate dilution method
Assay type: functional
Conditions: ATCC 25923, 12 h
Numbers only, in µg/mL.

INSERT INTO assay_data (structurestring, reportedmeasurement) VALUES
  ('COc1ccc(-c2nc3sc(C(F)(F)F)nn3c2/C=N/Nc2nc(-c3ccc(C)cc3)cs2)cc1', 50);

Respectfully, I request MIC for each entry included below.
1. COc1ccc(-c2csc(N/N=C/c3c(-c4ccc(OC)cc4)nc4sc(C(F)(F)F)nn34)n2)cc1
2. Cc1ccc(-c2nc3sc(C)nn3c2/C=N/Nc2nc(-c3ccc([N+](=O)[O-])cc3)cs2)cc1
3. COc1ccc(-c2nc3sc(C)nn3c2/C=N/Nc2nc(-c3ccc([N+](=O)[O-])cc3)cs2)cc1

25
12.5
25

* * *

Tested on: Staphylococcus aureus
Assay: Antibacterial activity against Staphylococcus aureus ATCC 25923 after 12 hrs by serial plate dilution method
Format: functional
Settings: ATCC 25923, 12 h
Assignment: determine reported MIC for the given molecules.
Give bare numbers, in µg/mL.

INSERT INTO results (structurestring, reportedmeasurement) VALUES
  ('Cc1ccc(-c2nc3sc(C)nn3c2/C=N/Nc2nc(-c3ccc(F)cc3)cs2)cc1', 50),
  ('COc1ccc(-c2nc3sc(C)nn3c2/C=N/Nc2nc(-c3ccc(Cl)cc3)cs2)cc1', 12.5),
  ('FC(F)(F)c1nn2c(/C=N/Nc3nc(-c4ccc(Cl)cc4)cs3)c(-c3ccc(Cl)cc3)nc2s1', 12.5),
  ('COc1ccc(-c2csc(N/N=C/c3c(-c4ccc(OC)cc4)nc4sc(C)nn34)n2)cc1', 50),
  ('O=[N+]([O-])c1ccc(-c2csc(N/N=C/c3c(-c4ccc(Cl)cc4)nc4sc(C(F)(F)F)nn34)n2)cc1', 12.5);

List reported MIC for each of these molecules:
1. COc1ccc(-c2nc3sc(C(F)(F)F)nn3c2/C=N/Nc2nc(-c3ccc(Cl)cc3)cs2)cc1
2. COc1ccc(-c2csc(N/N=C/c3c(-c4ccc(Cl)cc4)nc4sc(C)nn34)n2)cc1
3. Fc1ccc(-c2csc(N/N=C/c3c(-c4ccc(Cl)cc4)nc4sc(C(F)(F)F)nn34)n2)cc1
4. Cc1nn2c(/C=N/Nc3nc(-c4ccc(F)cc4)cs3)c(-c3ccc(Cl)cc3)nc2s1
5. COc1ccc(-c2nc3sc(C(F)(F)F)nn3c2/C=N/Nc2nc(-c3ccc(F)cc3)cs2)cc1

[50, 50, 12.5, 25, 50]

* * *

Test: Cytotoxicity against mouse NIH/3T3 cells assessed as cell growth inhibition at 50 ug/mL after 48 hrs by MTT assay
Type: cell-based, NIH3T3
Conditions: read-out: GI
For each of the molecules below, state its inhibition at 48 h, 50 ug/mL.
Numbers only, in %.

Worked examples follow.
INSERT INTO results (structurestring, metricname, uom, reportedmeasurement) VALUES
  ('COc1ccc(-c2csc(N/N=C/c3c(-c4ccc(Cl)cc4)nc4sc(C(F)(F)F)nn34)n2)cc1', 'inhibition at 48 h, 50 ug/mL', '%', 14.7),
  ('COc1ccc(-c2nc3sc(C(F)(F)F)nn3c2/C=N/Nc2nc(-c3ccc(F)cc3)cs2)cc1', 'inhibition at 48 h, 50 ug/mL', '%', 18.9),
  ('Cc1ccc(-c2nc3sc(C)nn3c2/C=N/Nc2nc(-c3ccc([N+](=O)[O-])cc3)cs2)cc1', 'inhibition at 48 h, 50 ug/mL', '%', 23.3),
  ('Cc1ccc(-c2csc(N/N=C/c3c(-c4ccc(Cl)cc4)nc4sc(C(F)(F)F)nn34)n2)cc1', 'inhibition at 48 h, 50 ug/mL', '%', 19.6),
  ('Cc1ccc(-c2nc3sc(C)nn3c2/C=N/Nc2nc(-c3ccc(F)cc3)cs2)cc1', 'inhibition at 48 h, 50 ug/mL', '%', 22.3),
  ('COc1ccc(-c2csc(N/N=C/c3c(-c4ccc(Cl)cc4)nc4sc(C)nn34)n2)cc1', 'inhibition at 48 h, 50 ug/mL', '%', 20.8),
  ('Fc1ccc(-c2csc(N/N=C/c3c(-c4ccc(Cl)cc4)nc4sc(C(F)(F)F)nn34)n2)cc1', 'inhibition at 48 h, 50 ug/mL', '%', 15.9),
  ('COc1ccc(-c2nc3sc(C)nn3c2/C=N/Nc2nc(-c3ccc(Cl)cc3)cs2)cc1', 'inhibition at 48 h, 50 ug/mL', '%', 12.7);

inhibition at 48 h, 50 ug/mL lookup needed for COc1ccc(-c2nc3sc(C(F)(F)F)nn3c2/C=N/Nc2nc(-c3ccc(C)cc3)cs2)cc1 , thanks. 18.4
